Assay: Serum stability of prodrugs: hydrolysis by human serum
Assay type: in vitro ADME
Settings: prodrug, 3 hr
READOUT NAME: Conc. at t = 3 hr (µM)
State just the number; it will be interpreted in µM.

Lookup: Which Conc. at t = 3 hr is reported for this compound? `COc1ccc2c(c1C(=O)OCOC(=O)C(C)(C)C)OB(O)[C@@H](Sc1nncs1)C2`
Found: 41.4

Lookup: Which Conc. at t = 3 hr is reported for this compound? `COc1ccc2c(c1C(=O)OCOC(=O)C(C)C)OB(O)[C@@H](Sc1nncs1)C2`
Found: 24.8

Lookup: Which Conc. at t = 3 hr is reported for this compound? `COc1ccc2c(c1C(=O)OCOC(=O)OC(C)C)OB(O)[C@@H](Sc1nncs1)C2`
Found: 47.1

Lookup: Which Conc. at t = 3 hr is reported for this compound? `CCOC(=O)OCOC(=O)c1c(OC)ccc2c1OB(O)[C@@H](Sc1nncs1)C2`
Found: 45.9

Lookup: Which Conc. at t = 3 hr is reported for this compound? `COc1ccc2c(c1C(=O)OCOC(C)=O)OB(O)[C@@H](Sc1nncs1)C2`
Found: 30.7

###

Target: KPC-2 (Klebsiella pneumoniae)
Sequence (Q9F663 25-293 limits assumed): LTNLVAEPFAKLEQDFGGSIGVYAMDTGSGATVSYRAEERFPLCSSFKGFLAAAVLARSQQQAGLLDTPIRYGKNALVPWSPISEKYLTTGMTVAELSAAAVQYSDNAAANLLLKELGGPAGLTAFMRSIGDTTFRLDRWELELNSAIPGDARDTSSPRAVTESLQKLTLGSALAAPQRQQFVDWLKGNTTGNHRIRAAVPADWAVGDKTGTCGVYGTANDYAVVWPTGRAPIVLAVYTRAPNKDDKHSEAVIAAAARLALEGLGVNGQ
Assay: Inhibition of purified class A carbapenemase KPC-2 (Ki, carbapenem substrates)
Assay type: biochemical
Conditions: cleavage of tebipenem by KPC-2; read-out: Ki, Tebipenem
Could you please report measured Ki for the items listed next?

Lookup: Which Ki is reported for this molecule? `CSc1ccc2c(c1C(=O)O)OB(O)[C@@H](Sc1nnc(N)s1)C2`
Found: < 10 nM

Lookup: Which Ki is reported for this molecule? `COc1ccc2c(c1C(=O)O)OB(O)[C@@H](Sc1nnc(N)s1)C2`
Found: < 10 nM

Lookup: Which Ki is reported for this molecule? `Nc1nnc(S[C@H]2Cc3ccc(F)c(C(=O)O)c3OB2O)s1`
Found: < 10 nM

###

Molecular target: NDM-1 (Klebsiella pneumoniae, UniProt C7C422)
Sequence (C7C422 29-270, looked up, species assumed): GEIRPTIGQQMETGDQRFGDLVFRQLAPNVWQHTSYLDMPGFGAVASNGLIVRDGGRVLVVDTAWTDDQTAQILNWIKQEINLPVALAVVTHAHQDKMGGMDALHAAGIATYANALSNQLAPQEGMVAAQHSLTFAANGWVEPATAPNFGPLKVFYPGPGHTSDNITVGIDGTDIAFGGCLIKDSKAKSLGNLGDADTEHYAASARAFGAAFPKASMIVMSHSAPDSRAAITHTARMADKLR
Experiment: Inhibition of purified class B carbapenemase NDM-1 (Ki, imipenem substrate)
Assay type: biochemical
Conditions: NDM-1, substrate imipenem; read-out: Ki NDM-1, Imipenem
pKi: −log10 of the molar value.
READOUT NAME: pKi

Lookup: Which pKi is reported for this compound? `COc1ccc2c(c1C(=O)O)OB(O)[C@@H](Sc1nnc(SCCN3CCOCC3)s1)C2`
Found: < 7.00

Lookup: Which pKi is reported for this compound? `Nc1nnc(S[C@H]2Cc3ccc(O)c(C(=O)O)c3OB2O)s1`
Found: > 8.00

Lookup: Which pKi is reported for this compound? `O=C(O)c1c(OCC2CC2)ccc2c1OB(O)[C@@H](Sc1nncs1)C2`
Found: 7.00 to 8.00

Lookup: Which pKi is reported for this compound? `O=C(O)c1c(F)ccc2c1OB(O)[C@@H](Sc1cnns1)C2`
Found: < 7.00

Lookup: Which pKi is reported for this compound? `Cn1nnnc1S[C@H]1Cc2cccc(C(=O)O)c2OB1O`
Found: 7.00 to 8.00

Lookup: Which pKi is reported for this compound? `Nn1cnnc1S[C@H]1Cc2ccc(F)c(C(=O)O)c2OB1O`
Found: > 8.00

Lookup: Which pKi is reported for this compound? `COc1ccc2c(c1C(=O)O)OB(O)[C@@H](Sc1nc(N)n[nH]1)C2`
Found: > 8.00

Lookup: Which pKi is reported for this compound? `COc1ccc2c(c1C(=O)O)OB(O)[C@@H](Sc1nnc(NC3CCNCC3)s1)C2`
Found: > 8.00

Lookup: Which pKi is reported for this compound? `NCCOc1ccc2c(c1C(=O)O)OB(O)[C@@H](Sc1nnc(N)s1)C2`
Found: < 7.00

Lookup: Which pKi is reported for this compound? `NC(=O)c1cnc(S[C@H]2Cc3ccc(F)c(C(=O)O)c3OB2O)s1`
Found: < 7.00

Lookup: Which pKi is reported for this compound? `COc1ccc2c(c1C(=O)O)OB(O)[C@@H](SCCc1nnc(N)s1)C2`
Found: > 8.00

Lookup: Which pKi is reported for this compound? `NC(=O)CCS[C@H]1Cc2cccc(C(=O)O)c2OB1O`
Found: < 7.00

Lookup: Which pKi is reported for this compound? `COc1ccc2c(c1C(=O)O)OB(O)[C@@H](Sc1nnc(SC(CN)CN)s1)C2`
Found: > 8.00

Lookup: Which pKi is reported for this compound? `NC(=O)CS[C@H]1Cc2ccc(F)c(C(=O)O)c2OB1O`
Found: < 7.00

Lookup: Which pKi is reported for this compound? `O=C(O)c1cccc2c1OB(O)[C@@H](Sc1cccnc1)C2`
Found: < 7.00

Lookup: Which pKi is reported for this compound? `COc1ccc2c(c1C(=O)O)OB(O)[C@@H](Sc1nnc(NCCNC3CNC3)s1)C2`
Found: > 8.00

Lookup: Which pKi is reported for this compound? `O=CNc1cnc(S[C@H]2Cc3ccc(F)c(C(=O)O)c3OB2O)s1`
Found: < 7.00

Lookup: Which pKi is reported for this compound? `CS(=O)(=O)Nc1ccc2c(c1C(=O)O)OB(O)[C@@H](Sc1nnc(N)s1)C2`
Found: > 8.00

Lookup: Which pKi is reported for this compound? `COc1ccc2c(c1C(=O)O)OB(O)[C@@H](Sc1nnc(SCCN3CCNCC3)s1)C2`
Found: < 7.00

Lookup: Which pKi is reported for this compound? `NC(=O)COc1ccc2c(c1C(=O)O)OB(O)[C@@H](Sc1nnc(N)s1)C2`
Found: < 7.00

Lookup: Which pKi is reported for this compound? `COc1ccc2c(c1C(=O)O)OB(O)[C@@H](Sc1nncn1C)C2`
Found: > 8.00

Lookup: Which pKi is reported for this compound? `Nc1nnc(S[C@H]2Cc3ccc(-n4ccnn4)c(C(=O)O)c3OB2O)s1`
Found: > 8.00

Lookup: Which pKi is reported for this compound? `CO[C@H]1Cc2cccc(C(=O)O)c2OB1O`
Found: 7.00 to 8.00

Lookup: Which pKi is reported for this compound? `COc1ccc2c(c1C(=O)O)OB(O)[C@@H](Sc1nnc(OCCN)s1)C2`
Found: > 8.00

Lookup: Which pKi is reported for this compound? `Nc1nnc(S[C@H]2Cc3ccc(OCC(F)F)c(C(=O)O)c3OB2O)s1`
Found: 7.00 to 8.00

Lookup: Which pKi is reported for this compound? `O=C(O)c1c(OCCF)ccc2c1OB(O)[C@@H](Sc1nncs1)C2`
Found: 7.00 to 8.00

Lookup: Which pKi is reported for this compound? `COc1ccc2c(c1C(=O)O)OB(O)[C@@H](Sc1nnc(CN3CCNCC3)n1N)C2`
Found: 7.00 to 8.00

Lookup: Which pKi is reported for this compound? `O=C(O)c1c(OCC(F)F)ccc2c1OB(O)[C@@H](Sc1nncs1)C2`
Found: 7.00 to 8.00

Lookup: Which pKi is reported for this compound? `COc1ccc2c(c1C(=O)O)OB(O)[C@@H](Sc1nnc(NCCN)s1)C2`
Found: > 8.00

Lookup: Which pKi is reported for this compound? `CCOc1ccc2c(c1C(=O)O)OB(O)[C@@H](Sc1nnc(N)s1)C2`
Found: > 8.00

Lookup: Which pKi is reported for this compound? `Nc1nnc(S[C@H]2Cc3cc4nc[nH]c4c(C(=O)O)c3OB2O)s1`
Found: < 7.00

Lookup: Which pKi is reported for this compound? `COc1ccc2c(c1C(=O)O)OB(O)[C@@H](Sc1nnc(NCCCN)s1)C2`
Found: > 8.00

Lookup: Which pKi is reported for this compound? `CC(=O)Nc1nnc(S[C@H]2Cc3cccc(C(=O)O)c3OB2O)s1`
Found: 7.00 to 8.00

Lookup: Which pKi is reported for this compound? `Nc1nnc(S[C@H]2Cc3ccc(OC(F)F)c(C(=O)O)c3OB2O)s1`
Found: 7.00 to 8.00

Lookup: Which pKi is reported for this compound? `Nc1nnc(S[C@H]2Cc3cc(F)c(F)c(C(=O)O)c3OB2O)s1`
Found: 7.00 to 8.00

Lookup: Which pKi is reported for this compound? `CSc1ccc2c(c1C(=O)O)OB(O)[C@@H](Sc1nncn1N)C2`
Found: > 8.00

###

Could you please report measured pKi for the items listed next?
Target: NDM-1 (Klebsiella pneumoniae)
Test: biochemical
Details: cleavage of imipenem (100 uM) by NDM-1; read-out: Ki, Imipenem
pKi: −log10 of the molar value.

Lookup: Which pKi is reported for this molecule? `O=C(O)c1cccc2c1OB(O)[C@@H](Sc1cccnc1)C2`
Found: < 7.00

Lookup: Which pKi is reported for this molecule? `COc1ccc2c(c1C(=O)O)OB(O)[C@@H](Sc1nnc(NC(C)=O)s1)C2`
Found: < 7.00

Lookup: Which pKi is reported for this molecule? `COc1ccc2c(c1C(=O)O)OB(O)[C@@H](SCCN1CCNCC1)C2`
Found: < 7.00

Lookup: Which pKi is reported for this molecule? `CCOc1ccc2c(c1C(=O)O)OB(O)[C@@H](Sc1nnc(N)s1)C2`
Found: > 8.00

Lookup: Which pKi is reported for this molecule? `CC(=N)S[C@H]1Cc2cccc(C(=O)O)c2OB1O`
Found: 7.00 to 8.00

Lookup: Which pKi is reported for this molecule? `O=C(O)c1c(OC(F)F)ccc2c1OB(O)[C@@H](Sc1nncs1)C2`
Found: < 7.00

Lookup: Which pKi is reported for this molecule? `COc1ccc2c(c1C(=O)O)OB(O)[C@@H](Sc1nnc[nH]1)C2`
Found: 7.00 to 8.00

Lookup: Which pKi is reported for this molecule? `Nc1nnc(S[C@H]2Cc3ccc(OCC(F)F)c(C(=O)O)c3OB2O)s1`
Found: 7.00 to 8.00

Lookup: Which pKi is reported for this molecule? `O=C(O)c1c(F)ccc2c1OB(O)[C@@H](Sc1nnc(C(F)(F)F)s1)C2`
Found: < 7.00

All figures here come from patent US10206937B2.
